// values below are reported fold change of affinity
Molecular target: T1, Human CD3eg linker (human)
T1 construct: Single-chain construct; also called recombinant human CD3
T1 chain: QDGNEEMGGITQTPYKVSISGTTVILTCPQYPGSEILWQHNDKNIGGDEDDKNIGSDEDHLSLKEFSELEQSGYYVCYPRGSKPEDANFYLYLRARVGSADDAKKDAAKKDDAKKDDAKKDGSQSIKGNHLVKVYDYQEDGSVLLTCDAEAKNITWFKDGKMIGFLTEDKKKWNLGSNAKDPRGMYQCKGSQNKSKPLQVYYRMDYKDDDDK
Experiment: SPR; fold vs parent H183/L072

{"columns": ["binder", "units_of_measure", "fold change of affinity"],
 "data": [
  ["H183/L072 VL T97D (antibody, name in Kabat numbering, V domains shown) VH: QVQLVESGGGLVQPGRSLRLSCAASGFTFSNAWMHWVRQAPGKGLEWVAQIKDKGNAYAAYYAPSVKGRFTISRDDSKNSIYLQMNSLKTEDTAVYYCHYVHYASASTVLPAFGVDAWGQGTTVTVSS VL: DIVMTQSPLSLPVTPGEPASISCQASQELVHMNRNTYLHWYQQKPGQAPRLLIYKVSNRFPGVPDRFSGSGSGTDFTLKISRVEAEDVGVYYCAQGTSVPFDFGQGTKLEIK", "fold", 0.6],
  ["H183/L072 VL S93W (antibody, name in Kabat numbering, V domains shown) VH: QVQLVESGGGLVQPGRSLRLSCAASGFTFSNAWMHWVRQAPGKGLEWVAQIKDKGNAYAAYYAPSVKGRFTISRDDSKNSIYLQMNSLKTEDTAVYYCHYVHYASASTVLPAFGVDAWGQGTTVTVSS VL: DIVMTQSPLSLPVTPGEPASISCQASQELVHMNRNTYLHWYQQKPGQAPRLLIYKVSNRFPGVPDRFSGSGSGTDFTLKISRVEAEDVGVYYCAQGTWVPFTFGQGTKLEIK", "fold", 1.1],
  ["H183/L072 VL Q90H (antibody, name in Kabat numbering, V domains shown) VH: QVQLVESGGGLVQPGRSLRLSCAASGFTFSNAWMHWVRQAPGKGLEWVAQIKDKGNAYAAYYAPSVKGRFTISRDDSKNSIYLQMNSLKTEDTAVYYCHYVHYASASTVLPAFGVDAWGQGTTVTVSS VL: DIVMTQSPLSLPVTPGEPASISCQASQELVHMNRNTYLHWYQQKPGQAPRLLIYKVSNRFPGVPDRFSGSGSGTDFTLKISRVEAEDVGVYYCAHGTSVPFTFGQGTKLEIK", "fold", 0.1],
  ["H183/L072 VL T92A (antibody, name in Kabat numbering, V domains shown) VH: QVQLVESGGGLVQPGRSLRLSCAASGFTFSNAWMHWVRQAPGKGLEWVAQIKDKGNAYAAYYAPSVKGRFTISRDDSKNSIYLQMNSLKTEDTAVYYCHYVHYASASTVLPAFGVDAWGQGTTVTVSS VL: DIVMTQSPLSLPVTPGEPASISCQASQELVHMNRNTYLHWYQQKPGQAPRLLIYKVSNRFPGVPDRFSGSGSGTDFTLKISRVEAEDVGVYYCAQGASVPFTFGQGTKLEIK", "fold", 0.1],
  ["H183/L072 VL N53L (antibody, name in Kabat numbering, V domains shown) VH: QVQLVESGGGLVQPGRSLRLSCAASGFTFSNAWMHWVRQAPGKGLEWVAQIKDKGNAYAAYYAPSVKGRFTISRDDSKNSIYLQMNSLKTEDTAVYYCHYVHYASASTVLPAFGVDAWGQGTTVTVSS VL: DIVMTQSPLSLPVTPGEPASISCQASQELVHMNRNTYLHWYQQKPGQAPRLLIYKVSLRFPGVPDRFSGSGSGTDFTLKISRVEAEDVGVYYCAQGTSVPFTFGQGTKLEIK", "fold", 0.6],
  ["H183/L072 VL A89Q (antibody, name in Kabat numbering, V domains shown) VH: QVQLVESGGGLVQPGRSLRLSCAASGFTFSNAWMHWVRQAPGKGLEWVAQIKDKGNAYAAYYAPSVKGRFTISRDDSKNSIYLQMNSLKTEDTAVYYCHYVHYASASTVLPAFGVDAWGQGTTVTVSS VL: DIVMTQSPLSLPVTPGEPASISCQASQELVHMNRNTYLHWYQQKPGQAPRLLIYKVSNRFPGVPDRFSGSGSGTDFTLKISRVEAEDVGVYYCQQGTSVPFTFGQGTKLEIK", "fold", 0.2],
  ["H183/L072 VL H34Q (antibody, name in Kabat numbering, V domains shown) VH: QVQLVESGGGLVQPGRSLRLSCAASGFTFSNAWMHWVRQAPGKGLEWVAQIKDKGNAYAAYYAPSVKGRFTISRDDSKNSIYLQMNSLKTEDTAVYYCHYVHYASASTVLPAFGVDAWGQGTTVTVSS VL: DIVMTQSPLSLPVTPGEPASISCQASQELVHMNRNTYLQWYQQKPGQAPRLLIYKVSNRFPGVPDRFSGSGSGTDFTLKISRVEAEDVGVYYCAQGTSVPFTFGQGTKLEIK", "fold", 0],
  ["H183/L072 VL S93F (antibody, name in Kabat numbering, V domains shown) VH: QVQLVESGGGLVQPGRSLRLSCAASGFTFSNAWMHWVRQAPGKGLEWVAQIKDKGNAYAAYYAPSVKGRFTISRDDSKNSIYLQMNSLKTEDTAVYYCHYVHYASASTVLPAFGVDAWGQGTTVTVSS VL: DIVMTQSPLSLPVTPGEPASISCQASQELVHMNRNTYLHWYQQKPGQAPRLLIYKVSNRFPGVPDRFSGSGSGTDFTLKISRVEAEDVGVYYCAQGTFVPFTFGQGTKLEIK", "fold", 1],
  ["H183/L072 VL S93T (antibody, name in Kabat numbering, V domains shown) VH: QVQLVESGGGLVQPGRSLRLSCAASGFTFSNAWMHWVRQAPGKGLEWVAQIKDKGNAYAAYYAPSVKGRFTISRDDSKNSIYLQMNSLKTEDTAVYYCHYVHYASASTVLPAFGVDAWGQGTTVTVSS VL: DIVMTQSPLSLPVTPGEPASISCQASQELVHMNRNTYLHWYQQKPGQAPRLLIYKVSNRFPGVPDRFSGSGSGTDFTLKISRVEAEDVGVYYCAQGTTVPFTFGQGTKLEIK", "fold", 1],
  ["H183/L072 VL P56I (antibody, name in Kabat numbering, V domains shown) VH: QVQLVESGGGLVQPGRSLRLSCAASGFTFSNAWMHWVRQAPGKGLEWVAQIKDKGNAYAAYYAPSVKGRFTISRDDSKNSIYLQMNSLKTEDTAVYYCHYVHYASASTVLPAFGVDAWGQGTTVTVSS VL: DIVMTQSPLSLPVTPGEPASISCQASQELVHMNRNTYLHWYQQKPGQAPRLLIYKVSNRFIGVPDRFSGSGSGTDFTLKISRVEAEDVGVYYCAQGTSVPFTFGQGTKLEIK", "fold", 3.1]
]}
